PROTOCOL_SUMMARY: yeast display, Sf9 membrane polyspecificity reagent, FACS + sequencing; frameworks hold sequencing errors
OBSERVED_PROPERTY: polyreactivity (PSR sort gate)

// below: answered sequences
INSERT INTO results (entry_sequence, readout_value) VALUES
  ('QVQLVESGGGLVQAGGSLRLSCAASGRTFHYYAMGWYRQAPGKERELVASISSGGSTHYADSVKGRFTISRDNANNTGYLQMNSLKPEDTAVYYCNRVDGYGPRNKVPYVTYGVYYWGQGTQVTVSS', 'low polyreactivity'),
  ('QVQLVESGGGLVQAGGNLRLSCAASGSIFPRNAMGWYRQAPGKERELVAAISWRGGSTYYADSVKGRFTISRDNAKNTVYLQMNSLKPEDTAVYYCAATTYRSRYDYWGQGTQVTVSS', 'high polyreactivity'),
  ('QVQLVESGGGLVQAGGSLRLSCAASGRTFTQYAMGWYRQAPGKEREFVAAINFSGSRTYYADSVKGRFTISRDNAKNTVYLQMNSLKPEDTAVYYCNKRGSVYTSSQRQHDYWGQGTQVTVSS', 'low polyreactivity'),
  ('QVQLVESGGGLVQAGGSLRLSCAASGRIFYYYTMGWYRPAPGKERELVARITGLTGRTYYADCVKGRFTISRDNGKNTVYLQMNSLKPEDTAVYYCNARYFRHYDYWGQGTQGTVSS', 'high polyreactivity'),
  ('QGQRVESGGGLGQAGGSLRISCAASGLTFHRYAMGWYRQAQGKETELVAAINYSGGRTYYADSVKGRFTISRDNAKYTVYFQMNSLKPEDTAVYYCNVARWGNIPVGEYDYWGQGTQVTVSS', 'high polyreactivity'),
  ('QVQLVESGGGLVQAGGSLRLSCAASGFTFHSYAMGWYIQAPGKERELVAAISARGGSTYYADSVKGRFTISRDNAKNTVYLQMNSLKPEDTAVYYCAAYSYQVRFYYWGHGTQVTVSS', 'high polyreactivity'),
  ('QGQLVESGGGLVQAGGSLRLSCAASGRTFTDYAMGWYRQAPGKEWELVADISGSGGSTYYADSVKGRFTISRDNAKNTVYLQMNSLNPEDTAVYYCNAVGSRRDKFDYWGQGTQVTVSS', 'low polyreactivity'),
  ('QVQLVESGGGLVQAGGSLRLSCAASGSSLDSYTMGWSRQAPGKERELVAAITSDGGSTYYADSVKGRFTISRDNAKNTVYLQMNSLKPEDTAVDYCAKLSRYYGFWYTPDFDYWGQGTQVTVSS', 'high polyreactivity');

# sequence `QVQLVESGGGLVQAGGSLRLSCAASGSIIPLYAMGWYRQAPGKERELVAAISRRGGSTYYADSVKGRFTISRDNAKNTVYLQMNSLKPEDTAVYYCSVDSPSPSRGPRFYYWGQGTQVTVSS` ; its polyreactivity (PSR sort gate) = high polyreactivity

# sequence `QVQLVESGGGLVQAGGSLRLRCAASGRIVYWYAMGWYIQAPGKERELVATINQSGSSTYYADSVKGRFTISRDNAKNTVYLQMNSLKPEDTAVYYCARARSHYAYYWWNAGTGLDYWGQGTQVTVSS` ; its polyreactivity (PSR sort gate) = high polyreactivity

# sequence `QVQLVESGGGLVQAGGSLRLSCAASGSTFDANAMGWYRQAPGKERELVARMSRSTGSTYYADSVKGRFTISRDTAMNSVYLQLNSLKPVDTAVYYCAKVSRASNKYGYWGQGTQVTVSS` ; its polyreactivity (PSR sort gate) = high polyreactivity
